# credit: PubChem BioAssay AID330

System: P388 leukemia ip, CD2F1 mice, survival T/C
Assay: NCI In Vivo Anticancer Drug Screen. Data for tumor model P388 Leukemia (intraperitoneal) in CD2F1 (CDF1) mice
Conditions: endpoint: median survival time; dose: 50.0 mg/kg/injection; schedule: Q04DX003 (ip); vehicle: Klucel (hydroxypropylcellulose) (HPC); higher = longer survival
Inconclusive results and toxic doses are left out.
Measured T/C, listed per entry.

>>> reported_result("CCN(CC)C(=S)SS(C)(=O)=O")
"107 % of control"
>>> reported_result("O=Nc1ccc(Cl)cc1")
"93 % of control"
>>> reported_result("O=C(Nc1cccc(Cl)c1)c1cc(N=Nc2ccc([N+](=O)[O-])cc2Cl)ccc1O")
"107 % of control"
>>> reported_result("O=C1NC(c2ccccc2)(c2ccccc2)C(=O)N1CCS")
"100 % of control"

Lab note: CCCCc1c(C(=O)OCC)oc(C(=O)OCC)c(CCCC)c1=O gave T/C of 103 % of control

Lab note: measured T/C of CC1=C(C)C(=O)O[C@@H]([C@](C)(O)[C@]2(O)CC[C@@]3(O)[C@@H]4C[C@H]5O[C@]56CC=CC(=O)[C@]6(C)[C@H]4CC[C@]23C)C1 was 124 % of control
